Catalogue of sequences with associated COUNTS of radiolabeled gp120 retained
Molecular target: HIV-1LAI envelope gp120 (Human immunodeficiency virus type 1 group M subtype B)
Assay type: binding
Conditions: Panel D, 9-mers and 12-mers of CD4; empty control […]
Answer in counts, number only, no unit symbol.

- SEQUENCE_DATA: "QLLVFGLTANSD"
  UNIT_STRING: "counts"
  COUNTS of radiolabeled gp120 retained: 721
- SEQUENCE_DATA: "NLKIEDSDT"
  UNIT_STRING: "counts"
  COUNTS of radiolabeled gp120 retained: 512
- SEQUENCE_DATA: "EVQLLVFGL"
  UNIT_STRING: "counts"
  COUNTS of radiolabeled gp120 retained: 2146
- SEQUENCE_DATA: "LLQGQSLTL"
  UNIT_STRING: "counts"
  COUNTS of radiolabeled gp120 retained: 568
- SEQUENCE_DATA: "QKEEVQLLV"
  UNIT_STRING: "counts"
  COUNTS of radiolabeled gp120 retained: 636
- SEQUENCE_DATA: "TANSDTHLL"
  UNIT_STRING: "counts"
  COUNTS of radiolabeled gp120 retained: 554

Ask: Give the reported COUNTS of radiolabeled gp120 retained for VFGLTANSD (system: HIV-1LAI envelope gp120 (Human immunodeficiency virus type 1 group M subtype B)).
Result: 549

Ask: Likewise for VEDQKEEVQLLV ?
Result: 657

Ask: Next record, please: DSDTYICEVEDQ
Result: 937
